Tested on: OV90
Experimental details: Primary qHTS to identify gynecologic anti-cancer compounds using libraries of approved drugs and bioactive compounds (AID 1345084); further: on the % scale 0 is the no-effect control and ±100 the full control effect; nearly all actives have a fitted effect of over 55% in size
Conditions used: Gynecologic cancer cell panel viability, ATPlite luminescence, 48 h; series mostly up to 57.5 µM
Results filed as inconclusive are left out. Activity calls are given as the source filed them. The call rests on the fitted dose curve; in most records, active means well fitted cell-killing curve with a large enough effect; inconclusive means small, poorly fitted or top-dose-only effect, or effect the other way; inactive means flat fitted curve, though single readings scatter.
Parameter measured: activity change, negative = cytotoxicity

>>> obs_value("C=C1C(OC(C)=O)C(=O)C2C(C)(C)C(OC(C)=O)CCC2(C)C1CC(OC(C)=O)/C(C)=C/COC(C)=O (stereo unspecified)")
"inactive"
>>> obs_value("C[C@@H]1O[C@@H](O[C@H]2[C@H](OC(=O)[C@]34CCC(C)(C)C[C@H]3C3=CCC5[C@@]6(C)CC[C@H](O[C@@H]7O[C@H](CO[C@@H]8OC[C@H](O)[C@H](O)[C@H]8O)[C@@H](O)[C@H](O)[C@H]7O)C(C)(C)C6CC[C@@]5(C)[C@]3(C)C[C@H]4O)OC[C@@H](O)[C@@H]2O)[C@H](O)[C@H](O)[C@H]1O[C@@H]1OC[C@H](O)[C@H](O[C@@H]2OC[C@@H](O)[C@H](O)[C@H]2O)[C@H]1O (stereo partly specified)")
"-10.8% [at 6.55 µM] (inactive)"
>>> obs_value("CC1OC(OC2C(O)C(C(=O)O)OC(OC3CCC4(C)C(CCC5(C)C4C=CC4=C6CC(C)(C)CC(O)C6(C)CCC45C)C3(C)C)C2OC2OCC(O)C(O)C2O)C(O)C(O)C1O (stereo unspecified)")
"1.31% [at 11.6 µM] (inactive)"
>>> obs_value("C[C@@H]1O[C@@H](O[C@H]2[C@H](O[C@H]3CC[C@@]4(C)C(CC[C@]5(C)C4CC=C4C6CC(C)(C)CC[C@]6(C(=O)O[C@@H]6O[C@H](CO[C@@H]7O[C@H](CO)[C@@H](O[C@@H]8O[C@@H](C)[C@H](O)[C@@H](O)[C@H]8O)[C@H](O)[C@H]7O)[C@@H](O)[C@H](O)[C@H]6O)CC[C@]45C)[C@]3(C)CO)OC[C@H](O)[C@@H]2O)[C@H](O)[C@H](O)[C@H]1O (stereo partly specified)")
"-14.8% [at 6.55 µM] (inactive)"
>>> obs_value("CCC(CC)n1ccc2c(C(=O)NCc3c(C)cc(C)[nH]c3=O)cc(C#N)cc21")
"inactive"
>>> obs_value("C[C@@H]1CC[C@]2(C(=O)O[C@@H]3O[C@H](CO)[C@@H](O)[C@H](O)[C@H]3O)CC[C@]3(C)C(=CCC4[C@@]5(C)C[C@@H](O)[C@H](O)C(C)(C)C5CC[C@]43C)C2[C@]1(C)O (stereo partly specified)")
"inactive"
>>> obs_value("COc1ccc([C@H]2Cc3cccc(O)c3C(=O)O2)cc1")
"inactive"
>>> obs_value("CC(C)=CCC/C(C)=C/CC/C(C)=C/CC[C@]1(C)CCc2cc(O)cc(C)c2O1")
"inactive"
>>> obs_value("CC1(C)CC2C3=CCC4C5(C)CCC(OC6OC(C(=O)O)C(O)C(O)C6OC6OC(CO)C(O)C(O)C6OC6OC(CO)C(O)C(O)C6O)C(C)(CO)C5CCC4(C)C3(C)CCC2(C)C(OC2OCC(O)C(OC3OC(CO)C(O)C(O)C3O)C2O)C1O (stereo unspecified)")
"-9.75% [at 6.55 µM] (inactive)"
>>> obs_value("COc1cc(C[C@H]2COC(=O)[C@@H]2Cc2ccc(O)c(OC)c2)ccc1O")
"inactive"
>>> obs_value("CC1(C)CC[C@]2(C(=O)O)CC[C@]3(C)C(=CCC4[C@@]5(C)CC[C@H](O[C@@H]6O[C@H](C(=O)O)[C@@H](O)[C@H](O)[C@H]6O)C(C)(CO)C5CC[C@]43C)C2C1 (stereo partly specified)")
"inactive"
